# System: antidiuretic response to arginine vasopressin (ADH)
# ASSAY_METHOD_TEXT: Anti-antidiuretic: antagonism of the antidiuretic response to subsequent injections of vasopressin
# Format: in vivo, rats
# TEST_PARAMETERS: Table 2; estimated in vivo pA2, volume of distribution 67 ml/kg
Starred links: 1 amine or outer side, 2 acyl side, 3 side chain; linkers in the order of their positions; H or OH if unused. Positions of bridges follow the written chain, without caps; N, C: chain ends. Non-standard residues stand in square brackets, D forms with d. Residues, ends and D or L forms follow the SMILES beside them. X1 = O=C(CC1(S[*:2])CCCCC1)[*:1]
READOUT_LABEL: Anti-Antidiuretic pA2

CC[C@@H](C)[C@H]1NC(=O)CC2(CCCCC2)SSC[C@@H](C(=O)N2CCC[C@H]2C(=O)N[C@@H](CCCNC(=N)N)C(=O)NCC(N)=O)NC(=O)[C@H](CC(N)=O)NC(=O)[C@H]([C@@H](C)CC)NC(=O)[C@H](Cc2ccccc2)NC1=O [d(CH2)5 D-Ile^2 Ile^4 AVP] ([dI]FINCPRG-NH2; linker N-5 via X1); 8.04
CC[C@@H](C)[C@H]1NC(=O)CC2(CCCCC2)SSC[C@@H](C(=O)N2CCC[C@H]2C(=O)N[C@@H](CCCNC(=N)N)C(=O)NCC(N)=O)NC(=O)[C@H](CC(N)=O)NC(=O)[C@H](CC(C)C)NC(=O)[C@H](Cc2ccccc2)NC1=O [d(CH2)5 D-Ile^2 Leu^4 AVP] ([dI]FLNCPRG-NH2; linker N-5 via X1); 6.80
CC(C)[C@@H]1NC(=O)[C@H](Cc2ccccc2)NC(=O)[C@@H](Cc2ccccc2)NC(=O)CC2(CCCCC2)SSC[C@@H](C(=O)N2CCC[C@H]2C(=O)N[C@@H](CCCNC(=N)N)C(=O)NCC(N)=O)NC(=O)[C@H](CC(N)=O)NC1=O [d(CH2)5 D-Phe^2 VAVP] ([dF]FVNCPRG-NH2; linker N-5 via X1); 8.06

----------
# Test system: antidiuretic response to arginine vasopressin (ADH)
# ASSAY_METHOD_TEXT: Anti-antidiuretic: antagonism of the antidiuretic response to subsequent injections of vasopressin
# Assay type: in vivo, rats
# TEST_PARAMETERS: Table 2; estimated in vivo pA2, volume of distribution 67 ml/kg
Starred links: 1 amine or outer side, 2 acyl side, 3 side chain; linkers in the order of their positions; H or OH if unused. Positions of bridges follow the written chain, without caps; N, C: chain ends. Non-standard residues stand in square brackets, D forms with d. Residues, ends and D or L forms follow the SMILES beside them. X1 = O=C(CC1(S[*:2])CCCCC1)[*:1]; Cha = N[C@@H](CC1CCCCC1)C(=O)O; Nle = CCCC[C@H](N)C(=O)O; Orn = NCCC[C@H](N)C(=O)O; Nva = CCC[C@H](N)C(=O)O
READOUT_LABEL: Anti-Antidiuretic pA2

N=C(N)NCCC[C@H](NC(=O)[C@@H]1CCCN1C(=O)[C@@H]1CSSC2(CCCCC2)CC(=O)N[C@H](Cc2ccccc2)C(=O)N[C@@H](Cc2ccccc2)C(=O)N[C@@H](Cc2ccccc2)C(=O)N[C@@H](CC(N)=O)C(=O)N1)C(=O)NCC(N)=O [d(CH2)5 D-Phe^2 Phe^4 AVP] ([dF]FFNCPRG-NH2; linker N-5 via X1); 6.07
CC[C@@H](C)[C@H]1NC(=O)CC2(CCCCC2)SSC[C@@H](C(=O)N2CCC[C@H]2C(=O)N[C@@H](CCCNC(=N)N)C(=O)NCC(N)=O)NC(=O)[C@H](CC(N)=O)NC(=O)[C@H](C)NC(=O)[C@H](Cc2ccccc2)NC1=O [d(CH2)5 D-Ile^2 Ala^4 AVP] ([dI]FANCPRG-NH2; linker N-5 via X1); 7.76
CC(C)C[C@@H]1NC(=O)[C@H](Cc2ccccc2)NC(=O)[C@@H](Cc2ccccc2)NC(=O)CC2(CCCCC2)SSC[C@@H](C(=O)N2CCC[C@H]2C(=O)N[C@@H](CCCNC(=N)N)C(=O)NCC(N)=O)NC(=O)[C@H](CC(N)=O)NC1=O [d(CH2)5 D-Phe^2 Leu^4 AVP] ([dF]FLNCPRG-NH2; linker N-5 via X1); 6.07
CC[C@@H](C)[C@H]1NC(=O)CC2(CCCCC2)SSC[C@@H](C(=O)N2CCC[C@H]2C(=O)N[C@@H](CCCNC(=N)N)C(=O)NCC(N)=O)NC(=O)[C@H](CC(N)=O)NC(=O)[C@H](C(C)C)NC(=O)[C@H](Cc2ccccc2)NC1=O [d(CH2)5 D-Ile^2 VAVP] ([dI]FVNCPRG-NH2; linker N-5 via X1); 7.98
CCCC[C@@H]1NC(=O)[C@H](Cc2ccccc2)NC(=O)[C@@H](Cc2ccccc2)NC(=O)CC2(CCCCC2)SSC[C@@H](C(=O)N2CCC[C@H]2C(=O)N[C@@H](CCCNC(=N)N)C(=O)NCC(N)=O)NC(=O)[C@H](CC(N)=O)NC1=O [d(CH2)5 D-Phe^2 Nle^4 AVP] ([dF]F[Nle]NCPRG-NH2; linker N-5 via X1); 7.12
N=C(N)NCCC[C@H](NC(=O)[C@@H]1CCCN1C(=O)[C@@H]1CSSC2(CCCCC2)CC(=O)N[C@H](Cc2ccccc2)C(=O)N[C@@H](Cc2ccccc2)C(=O)N[C@@H](CC2CCCCC2)C(=O)N[C@@H](CC(N)=O)C(=O)N1)C(=O)NCC(N)=O [d(CH2)5 D-Phe^2 Cha^4 AVP] ([dF]F[Cha]NCPRG-NH2; linker N-5 via X1); 7.19
N=C(N)NCCC[C@H](NC(=O)[C@@H]1CCCN1C(=O)[C@@H]1CSSC2(CCCCC2)CC(=O)N[C@H](Cc2ccccc2)C(=O)N[C@@H](Cc2ccccc2)C(=O)N[C@@H](CCCCN)C(=O)N[C@@H](CC(N)=O)C(=O)N1)C(=O)NCC(N)=O [d(CH2)5 D-Phe^2 Lys^4 AVP] ([dF]FKNCPRG-NH2; linker N-5 via X1); 7.22
CC[C@@H](C)[C@H]1NC(=O)CC2(CCCCC2)SSC[C@@H](C(=O)N2CCC[C@H]2C(=O)N[C@@H](CCCNC(=N)N)C(=O)NCC(N)=O)NC(=O)[C@H](CC(N)=O)NC(=O)[C@H](CCC(N)=O)NC(=O)[C@H](Cc2ccccc2)NC1=O [d(CH2)5 D-Ile^2 AVP] ([dI]FQNCPRG-NH2; linker N-5 via X1); 6.96
CCC[C@@H]1NC(=O)[C@H](Cc2ccccc2)NC(=O)[C@@H](Cc2ccccc2)NC(=O)CC2(CCCCC2)SSC[C@@H](C(=O)N2CCC[C@H]2C(=O)N[C@@H](CCCNC(=N)N)C(=O)NCC(N)=O)NC(=O)[C@H](CC(N)=O)NC1=O [d(CH2)5 D-Phe^2 Nva^4 AVP] ([dF]F[Nva]NCPRG-NH2; linker N-5 via X1); 6.99
CC[C@@H](C)[C@H]1NC(=O)CC2(CCCCC2)SSC[C@@H](C(=O)N2CCC[C@H]2C(=O)N[C@@H](CCCN)C(=O)NCC(N)=O)NC(=O)[C@H](CC(N)=O)NC(=O)[C@H](C(C)C)NC(=O)[C@H](Cc2ccccc2)NC1=O [d(CH2)5 D-Ile^2 Val^4 Orn^8 VP] ([dI]FVNCP[Orn]G-NH2; linker N-5 via X1); 7.66
N=C(N)NCCC[C@H](NC(=O)[C@@H]1CCCN1C(=O)[C@@H]1CSSC2(CCCCC2)CC(=O)N[C@H](Cc2ccccc2)C(=O)N[C@@H](Cc2ccccc2)C(=O)N[C@@H](CCC(N)=O)C(=O)N[C@@H](CC(N)=O)C(=O)N1)C(=O)NCC(N)=O [d(CH2)5 D-Phe^2 AVP] ([dF]FQNCPRG-NH2; linker N-5 via X1); 7.21
C[C@@H](O)[C@@H]1NC(=O)[C@H](Cc2ccccc2)NC(=O)[C@@H](Cc2ccccc2)NC(=O)CC2(CCCCC2)SSC[C@@H](C(=O)N2CCC[C@H]2C(=O)N[C@@H](CCCNC(=N)N)C(=O)NCC(N)=O)NC(=O)[C@H](CC(N)=O)NC1=O [d(CH2)5 D-Phe^2 Thr^4 AVP] ([dF]FTNCPRG-NH2; linker N-5 via X1); 7.62

----------
# Tested on: antidiuretic response to arginine vasopressin (ADH)
# ASSAY_METHOD_TEXT: Anti-antidiuretic: antagonism of the antidiuretic response to subsequent injections of vasopressin
# Format: in vivo, rats
# TEST_PARAMETERS: Table 2; estimated in vivo pA2, volume of distribution 67 ml/kg
Starred links: 1 amine or outer side, 2 acyl side, 3 side chain; linkers in the order of their positions; H or OH if unused. Positions of bridges follow the written chain, without caps; N, C: chain ends. Non-standard residues stand in square brackets, D forms with d. Residues, ends and D or L forms follow the SMILES beside them. X1 = O=C(CC1(S[*:2])CCCCC1)[*:1]
READOUT_LABEL: Anti-Antidiuretic pA2

C[C@@H]1NC(=O)[C@H](Cc2ccccc2)NC(=O)[C@@H](Cc2ccccc2)NC(=O)CC2(CCCCC2)SSC[C@@H](C(=O)N2CCC[C@H]2C(=O)N[C@@H](CCCNC(=N)N)C(=O)NCC(N)=O)NC(=O)[C@H](CC(N)=O)NC1=O [d(CH2)5 D-Phe^2 Ala^4 AVP] ([dF]FANCPRG-NH2; linker N-5 via X1); 7.52
CC[C@@H](C)[C@H]1NC(=O)CC2(CCCCC2)SSC[C@@H](C(=O)N2CCC[C@H]2C(=O)N[C@@H](CCCNC(=N)N)C(=O)NCC(N)=O)NC(=O)[C@H](CC(N)=O)NC(=O)[C@H]([C@@H](C)O)NC(=O)[C@H](Cc2ccccc2)NC1=O [d(CH2)5 D-Ile^2 Thr^4 AVP] ([dI]FTNCPRG-NH2; linker N-5 via X1); 7.91
